- procedureText: Zinc precipitation of GLP-1 compounds (A280 of supernatant)
- Type: physicochemical
- measurementConditions: Zn/GLP-1 molar ratio 0.7, 100 μM GLP-1 compound, HEPES pH 7.4, 22° C., 18 hours
Outcome: T for A280 of at least 0.2; F for anything lower.

Example entries and their recorded answers appear below.
Val^8-Asp^22-GLP-1(7-37)OH (HVEGTFTSDVSSYLEDQAAKEFIAWLVKGRG) :: T
Gln^22-GLP-1(7-37)OH (HAEGTFTSDVSSYLEQQAAKEFIAWLVKGRG) :: F
Val^8-Ala^22-GLP-1(7-37)OH (HVEGTFTSDVSSYLEAQAAKEFIAWLVKGRG) :: F

In plain terms: is recorded A280 at least 0.2 for Val^8-Lys^22-GLP-1(7-37)OH (HVEGTFTSDVSSYLEKQAAKEFIAWLVKGRG) ?
F

In plain terms: is recorded A280 at least 0.2 for Val^8-Glu^22-GLP-1(7-37)OH (HVEGTFTSDVSSYLEEQAAKEFIAWLVKGRG) ?
T

====

Can you tell me A280 for the items I'm about to list?
- procedureText: Zinc precipitation of GLP-1 compounds (A280 of supernatant)
- Assay type: physicochemical
- measurementConditions: Zn/GLP-1 molar ratio 1, 100 μM GLP-1 compound, HEPES pH 7.4, 22° C., 18 hours
Where no end group is shown, it is not given here.

Val^8-Pro^22-GLP-1(7-37)OH (HVEGTFTSDVSSYLEPQAAKEFIAWLVKGRG) :: 0.1905
Gly^8-GLP-1(7-37)OH (HGEGTFTSDVSSYLEGQAAKEFIAWLVKGRG-OH; UniProt P01275 98-128, looked up, variant A8G) [reference compound] :: 0.119
Gln^22-GLP-1(7-37)OH (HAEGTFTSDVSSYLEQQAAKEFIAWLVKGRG) :: 0.074

Consider now this further substance.
Entry under test: Val^8-Ser^22-GLP-1(7-37)OH (HVEGTFTSDVSSYLESQAAKEFIAWLVKGRG) . Its A280 was 0.149

====

- procedureText: Zinc precipitation of GLP-1 compounds (A280 of supernatant)
- Format: physicochemical
- measurementConditions: Zn/GLP-1 molar ratio 2, 100 μM GLP-1 compound, HEPES pH 7.4, 22° C., 18 hours
Where no end group is shown, it is not given here.
Can you tell me A280 for the items I'm about to list?
Answers are plain numbers.

Some substances with known A280 results, for comparison:
Val^8-Asp^22-GLP-1(7-37)OH (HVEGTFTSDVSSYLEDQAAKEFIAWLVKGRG) :: 0.184
Gly^8-GLP-1(7-37)OH (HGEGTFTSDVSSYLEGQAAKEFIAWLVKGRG-OH; UniProt P01275 98-128, looked up, variant A8G) [reference compound] :: 0.089
Val^8-Pro^22-GLP-1(7-37)OH (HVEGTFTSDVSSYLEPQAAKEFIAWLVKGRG) :: 0.1695
Gln^22-GLP-1(7-37)OH (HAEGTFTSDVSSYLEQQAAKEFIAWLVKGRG) :: 0.095

Quick one: give me A280 for each item below, same order please.
1. Val^8-Lys^22-GLP-1(7-37)OH (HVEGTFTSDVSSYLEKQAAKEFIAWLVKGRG)
2. Val^8-Ala^22-GLP-1(7-37)OH (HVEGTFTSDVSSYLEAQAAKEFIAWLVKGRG)
3. Val^8-Ser^22-GLP-1(7-37)OH (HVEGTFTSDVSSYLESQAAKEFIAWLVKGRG)
4. Val^8-Glu^22-GLP-1(7-37)OH (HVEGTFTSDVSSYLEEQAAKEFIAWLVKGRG)

1. 0.1675
2. 0.110
3. 0.0935
4. 0.078

====

- procedureText: Zinc precipitation of GLP-1 compounds (A280 of supernatant)
- Assay type: physicochemical
- measurementConditions: Zn/GLP-1 molar ratio 0, 100 μM GLP-1 compound, HEPES pH 7.4, 22° C., 18 hours
Where no end group is shown, it is not given here.
Entries whose A280 is below 0.3 take met; entries at or above 0.3 take not met.

Example entries and their recorded answers appear below.
Val^8-Ala^22-GLP-1(7-37)OH (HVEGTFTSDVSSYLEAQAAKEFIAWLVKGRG) :: met
Gly^8-GLP-1(7-37)OH (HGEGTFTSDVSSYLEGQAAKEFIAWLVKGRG-OH; UniProt P01275 98-128, looked up, variant A8G) [reference compound] :: not met
Val^8-Asp^22-GLP-1(7-37)OH (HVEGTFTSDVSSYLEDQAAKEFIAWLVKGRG) :: met
Gln^22-GLP-1(7-37)OH (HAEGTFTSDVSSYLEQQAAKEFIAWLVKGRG) :: met
Val^8-Ser^22-GLP-1(7-37)OH (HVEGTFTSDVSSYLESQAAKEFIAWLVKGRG) :: met

Please find the next substance below.
Record Val^8-Pro^22-GLP-1(7-37)OH (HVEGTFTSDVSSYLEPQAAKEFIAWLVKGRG) : is its A280 strictly below 0.3?
met

====

- procedureText: GLP Aggregation Assay (time to onset of aggregation, turbidity at 350 nm)
- Type: physicochemical
- measurementConditions: 0.3 mg/mL in 10 mM citrate, 10 mM phosphate, 150 mM NaCl, pH 7.4 to 7.5, 37° C., stirred, turbidity at 350 nm
Where no end group is shown, it is not given here.
measuredAttribute: Aggregation Time

Some substances with known Aggregation Time results, for comparison:
Val^8-Glu^22-GLP-1(7-36)NH2 (HVEGTFTSDVSSYLEEQAAKEFIAWLVKGR-NH2) :: >65 h
Val^8-Lys^23-GLP-1(7-37)OH (HVEGTFTSDVSSYLEGKAAKEFIAWLVKGRG) :: >45 h
Gly^8-Glu^30-GLP-1(7-37)OH (HGEGTFTSDVSSYLEGQAAKEFIEWLVKGRG) :: >40 h
Val^8-Tyr^12-GLP-1(7-37)OH (HVEGTYTSDVSSYLEGQAAKEFIAWLVKGRG) :: 6 h

Consider now this further substance.
Entry under test: Val^8-Tyr^16-GLP-1(7-37)OH (HVEGTFTSDYSSYLEGQAAKEFIAWLVKGRG) . Its Aggregation Time was 5 h

====

- procedureText: GLP Aggregation Assay (time to onset of aggregation, turbidity at 350 nm)
- Format: physicochemical
- measurementConditions: 0.3 mg/mL in 10 mM citrate, 10 mM phosphate, 150 mM NaCl, pH 7.4 to 7.5, 37° C., stirred, turbidity at 350 nm
- Description: GLP peptides of this invention were analyzed with respect to their potential to aggregate in solution. In general, peptides in solution were stirred at elevated temperature in a suitable buffer while recording turbidity at 350 nm as a function of time. Time to the onset of aggregation was measured to quantify the potential of a given GLP molecule to aggregate under these stressed conditions. […]
Where no end group is shown, it is not given here.
Outcome: Met for Aggregation Time of at least 9 h; Not met for anything lower.

Example entries and their recorded answers appear below.
Val^8-Lys^33-Val^34-GLP-1(7-37)OH (HVEGTFTSDVSSYLEGQAAKEFIAWLKVGRG) :: Met
Val^8-Glu^23-GLP-1(7-36)OH (HVEGTFTSDVSSYLEGEAAKEFIAWLVKGR) :: Met
Val^8-His^27-GLP-1(7-37)OH (HVEGTFTSDVSSYLEGQAAKHFIAWLVKGRG) :: Met
Val^8-Glu^22-Gln^23-GLP-1(7-37)OH (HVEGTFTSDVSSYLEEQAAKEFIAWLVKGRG) :: Met
Ala^8-Glu^26-GLP-1(7-37)OH (HAEGTFTSDVSSYLEGQAAEEFIAWLVKGRG) :: Met
Val^8-His^37-GLP-1(7-37)OH (HVEGTFTSDVSSYLEGQAAKEFIAWLVKGRH) :: Met

In plain terms: is recorded Aggregation Time at least 9 h for Val^8-Ser^22-GLP-1(7-37)OH (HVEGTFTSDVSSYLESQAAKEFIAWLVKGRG) ?
Met

In plain terms: is recorded Aggregation Time at least 9 h for Val^8-His^22-GLP-1(7-37)OH (HVEGTFTSDVSSYLEHQAAKEFIAWLVKGRG) ?
Met

In plain terms: is recorded Aggregation Time at least 9 h for Gln^22-GLP-1(7-37)OH (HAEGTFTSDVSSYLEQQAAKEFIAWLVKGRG) ?
Not met

In plain terms: is recorded Aggregation Time at least 9 h for Val^8-Glu^22-Lys^23-GLP-1(7-37)OH (HVEGTFTSDVSSYLEEKAAKEFIAWLVKGRG) ?
Met

In plain terms: is recorded Aggregation Time at least 9 h for Val^8-Glu^16-GLP-1(7-37)OH (HVEGTFTSDESSYLEGQAAKEFIAWLVKGRG) ?
Met

In plain terms: is recorded Aggregation Time at least 9 h for Val^8-Ala^11-GLP-1(7-37)OH (HVEGAFTSDVSSYLEGQAAKEFIAWLVKGRG) ?
Met

In plain terms: is recorded Aggregation Time at least 9 h for Val^8-Lys^22-GLP-1(7-36)NH2 (HVEGTFTSDVSSYLEKQAAKEFIAWLVKGR-NH2) ?
Met

In plain terms: is recorded Aggregation Time at least 9 h for Val^8-His^30-GLP-1(7-37)OH (HVEGTFTSDVSSYLEGQAAKEFIHWLVKGRG) ?
Met

In plain terms: is recorded Aggregation Time at least 9 h for Val^8-Glu^22-GLP-1(7-37)OH (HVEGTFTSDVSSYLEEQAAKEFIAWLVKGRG) ?
Met

In plain terms: is recorded Aggregation Time at least 9 h for Val^8-Gly^34-Lys^35-GLP-1(7-37)OH (HVEGTFTSDVSSYLEGQAAKEFIAWLVGKRG) ?
Met

In plain terms: is recorded Aggregation Time at least 9 h for Val^8-Gly^36-Pro^37-GLP-1(7-37)NH2 (HVEGTFTSDVSSYLEGQAAKEFIAWLVKGGP-NH2) ?
Not met

In plain terms: is recorded Aggregation Time at least 9 h for Val^8-Asp^22-GLP-1(7-37)OH (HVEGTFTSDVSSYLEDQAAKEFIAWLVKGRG) ?
Met

In plain terms: is recorded Aggregation Time at least 9 h for Val^8-Leu^16-Glu^26-GLP-1(7-37)OH (HVEGTFTSDLSSYLEGQAAEEFIAWLVKGRG) ?
Met

In plain terms: is recorded Aggregation Time at least 9 h for Val^8-Pro^22-GLP-1(7-37)OH (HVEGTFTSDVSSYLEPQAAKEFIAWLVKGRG) ?
Met

In plain terms: is recorded Aggregation Time at least 9 h for Val^8-Lys^22-Glu^23-GLP-1(7-37)OH (HVEGTFTSDVSSYLEKEAAKEFIAWLVKGRH) ?
Met
